Assay: Antioxidant activity assessed as DPPH radical scavenging activity by spectrophotometry
Format: physicochemical
pIC50: −log10 of the molar value.
readout_label: pIC50

Worked set:
COc1cc(/C=C/C(=O)CC(=O)/C=C/c2ccc(O)c(OC)c2)ccc1O [CURCUMIN] :: 4.87
COc1cc(/C=C/C(=O)/C=C/c2ccc(O)c(OC)c2)ccc1O :: 5.03
CCOc1cc(/C=C/C(=O)/C=C/c2ccc(O)c(OCC)c2)ccc1O :: 4.30
COc1ccc(O)c(/C=C/C(=O)/C=C/c2ccc(C)c(C)c2)c1 :: 3.69
COc1cc(/C=C/C(=O)/C=C/c2cc(OC)c(O)c(OC)c2)ccc1O :: 4.54

A = COc1cc(/C=C/C(=O)/C=C/c2ccc(C)c(C)c2)cc(OC)c1O
B = COc1ccc(O)c(/C=C/C(=O)/C=C/c2cc(OC)c(OC)c(OC)c2)c1
Problem: Compare reported pIC50 values for A and B . Which is lower? When you have decided, please share the label of that item.
Solution: B

---

Experiment: Drug metabolism in rat plasma after 24 hrs by HPLC analysis
Format: ADME, cell-free
Conditions: read-out: Drug metabolism
readout_label: metabolised at 24 h (%)

a = COc1cc(/C=C/C(=O)CC(=O)/C=C/c2ccc(O)c(OC)c2)ccc1O
b = COc1cc(/C=C/C(=O)/C=C/c2ccc(O)c(OC)c2)ccc1O
Problem: Dear colleague, could you let me know whether a or b has the lower recorded metabolised at 24 h? Thanks. State the label of the item chosen.
Solution: b
(b: 11.9%, a: 55.3%)

---

Assay: Antioxidant activity assessed as superoxide radical scavenging activity after 5 mins by nitrotetrazolium blue chloride assay
Type: physicochemical
pIC50: −log10 of the molar value.
readout_label: pIC50

// known answers, use as guide
COc1ccc(/C=C/C(=O)/C=C/c2ccc(OC)c(O)c2)cc1O :: 3.69
COc1cc(/C=C/C(=O)CC(=O)/C=C/c2ccc(O)c(OC)c2)ccc1O :: 4.05
COc1ccc(O)c(/C=C/C(=O)/C=C/c2cc(OC)c(OC)c(OC)c2)c1 :: 3.67
COc1ccc(/C=C/C(=O)/C=C/c2ccc(OC)c(OC)c2)cc1O :: 3.92
COc1ccc(/C=C/C(=O)/C=C/c2cc(OC)c(OC)c(OC)c2)cc1O :: 3.78
O=C1O[C@H]([C@@H](O)CO)C(O)=C1O :: 3.78
COc1ccc(/C=C/C(=O)/C=C/c2cc(OC)c(O)c(OC)c2)cc1OC :: 4.09

a = COc1cc(/C=C/C(=O)/C=C/c2cc(OC)c(OC)c(OC)c2)cc(OC)c1O
b = COc1ccc(O)c(/C=C/C(=O)/C=C/c2ccc(C)c(C)c2)c1
Problem: Between a and b , whose recorded pIC50 is greater? Field: selected label. Fill in the label of the entry you choose.
Solution: a

---

Assay: Antioxidant activity assessed as superoxide radical scavenging activity after 5 mins by nitrotetrazolium blue chloride assay
Format: physicochemical
readout_label: IC50 (µM)

COc1cc(/C=C/C(=O)/C=C/c2ccc(C)c(C)c2)cc(OC)c1O :: 156
COc1ccc(/C=C/C(=O)/C=C/c2ccc(O)c(OC)c2)cc1O :: 169
CCOc1cc(/C=C/C(=O)/C=C/c2ccc(O)c(OCC)c2)ccc1O :: 193

Values from ChEMBL document CHEMBL3407482
